B1: TOR1AIP2 (parent)
chain: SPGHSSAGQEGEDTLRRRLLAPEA

Variants of: B1
Experiment: protein stability index of a GFP-peptide fusion (GPS, HEK-293T) (PSI 1-6); higher = more stable;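 further: lentivirally expressed fusions sorted by FACS into six bins by GFP to DsRed ratio, PSI derived from sequencing read proportions per bin multiplied by bin number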
Settings: c terminus: a fixed tail appended
METRIC NAME: protein stability index
I only need the number, thanks.

Here's what some known entries look like.
INSERT INTO results (record_sequence, readout_value) VALUES
  ('SPGHSSAGQEGEDTLRRRLIAPEA [L20I]', 4.94),
  ('SPGHSSAGQEGEDTLRRGLLAPEA [R18G]', 5.1),
  ('SPGHSSAGQEGEDTLRRRLLASEA [P22S]', 4.92),
  ('SPGHSSAGQEGEDTLRRRLLANEA [P22N]', 5.76),
  ('SPGHSSAGFEGEDTLRRRLLAPEA [Q9F]', 4.11),
  ('SPGHSSAGQEGEDTLRRYLLAPEA [R18Y]', 2.94),
  ('SPGHSSAGQEGEDTKRRRLLAPEA [L15K]', 4.96),
  ('SPGHSSLGQEGEDTLRRRLLAPEA [A7L]', 3.73);

q: Would you kindly share the measured protein stability index for SPGHSSAGQEGEDTLRRRLLACEA [P22C] ?
a: 4.41

q: What do you get for SPGHSSAGQEGEDTLRRRLLAIEA [P22I] ?
a: 5.16

q: Same again, this time with SPGHSSAGHEGEDTLRRRLLAPEA [Q9H]
a: 3.83

q: Next variant: SPGLSSAGQEGEDTLRRRLLAPEA [H4L]
a: 3.85

q: Also, SPGVSSAGQEGEDTLRRRLLAPEA [H4V] please.
a: 3.81

q: Then what about the variant SPGHSSAGPEGEDTLRRRLLAPEA [Q9P] ?
a: 4.53

q: Same thing, different variant: SPIHSSAGQEGEDTLRRRLLAPEA [G3I]
a: 3.51

q: And what about the variant SPGHSSAGQEGEDTLIRRLLAPEA [R16I] ?
a: 5.06

q: Now give it for SQGHSSAGQEGEDTLRRRLLAPEA [P2Q] too.
a: 4.47

q: Also, SPGHSSAGQEGEDMLRRRLLAPEA [T14M] please.
a: 4.34

q: Could you do the same for SPGHSSAGQEGEDLLRRRLLAPEA [T14L] , please?
a: 4.84

q: Next record, please: SPGHSSAGQEGEDTLRRRLLAPER [A24R]
a: 4.54

q: Now the same for SPGHSSAGQEGYDTLRRRLLAPEA [E12Y]
a: 3.22

The reported measurements were obtained from the supplement of paper PMC10567573.
